Each recorded value in this set is attributed to the supplement of paper PMC10567573.

For each of the variants below, state its protein stability index.
B1: FOXJ1 (parent)
chain: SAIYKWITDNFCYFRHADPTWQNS

Variants of: B1
Experiment: protein stability index of a GFP-peptide fusion (GPS, HEK-293T) (PSI 1-6); higher = more stable;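 further: lentivirally expressed fusions sorted by FACS into six bins by GFP to DsRed ratio, PSI derived from sequencing read proportions per bin multiplied by bin number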
Conditions: c terminus: a fixed tail appended
One number for each entry.

Consider the following illustrative entries.
Recorded protein stability index (variant W21R ): 2.27

Item: N23W | protein stability index: 3.47

// protein stability index value for Q22C : 3.38

Just so you know, measured protein stability index for Y4P came out at 2.27

Measured protein stability index, F11Y : 3.4

Batch: protein stability index for all items listed.
1. C12N
2. P19V
3. W21I
4. F11P
5. P19N
6. Y13M
7. F11E

1. 1.6
2. 3.02
3. 3.5
4. 1.79
5. 2.77
6. 2.87
7. 1.89
